Listed below: IC50 values for each entry.
Tested on: S. Typhimurium ATCC 14028
EXPERIMENT NOTES: Monospecies bacterial biofilm inhibition, static peg assay
Type: cell-based, Salmonella enterica serovar Typhimurium
STUDY CONDITIONS: Salmonella enterica; S. Typhimurium ATCC 14028, 25°C; read-out: BIC50
PROPERTY NAME: IC50 (µM)

- MOLECULE: "O=c1cc(-c2ccccc2)oc2cc(O)c(O)c(O)c12 [Baicalein, reference compound]"
  QUALIFIER SYMBOL: ">"
  RECORDED VALUE: 400
- MOLECULE: "CCCCCn1c(-c2ccccc2)cnc1N"
  QUALIFIER SYMBOL: "="
  RECORDED VALUE: 48.4
- MOLECULE: "CC(C)CNc1ncc(-c2ccc(Cl)cc2)[nH]1"
  QUALIFIER SYMBOL: "="
  RECORDED VALUE: 2
- MOLECULE: "O=C(N/N=C/c1ccc([N+](=O)[O-])o1)c1ccc(O)cc1 [Nifuroxazide, reference compound]"
  QUALIFIER SYMBOL: ">"
  RECORDED VALUE: 400
- MOLECULE: "Brc1ccc(-c2cnc(NCCn3cc(C4CC4)nn3)[nH]2)cc1"
  QUALIFIER SYMBOL: "="
  RECORDED VALUE: 2
- MOLECULE: "CCCCNc1ncc(-c2ccc(Br)cc2)[nH]1"
  QUALIFIER SYMBOL: "="
  RECORDED VALUE: 7.1
- MOLECULE: "Clc1ccc(-c2cnc(NC3CCCC3)[nH]2)cc1"
  QUALIFIER SYMBOL: "="
  RECORDED VALUE: 4.4

---

Test system: E. coli TG1
EXPERIMENT NOTES: Monospecies bacterial biofilm inhibition, static peg assay
Type: cell-based, Escherichia coli
STUDY CONDITIONS: Escherichia coli, TG1, E. coli TG1, 25°C; read-out: BIC50
pIC50: −log10 of the molar value.
Each item that follows carries a reported pIC50.

- COMPOUND: "O=c1cc(-c2ccccc2)oc2cc(O)c(O)c(O)c12 [Baicalein, reference compound]"
  QUALIFIER SYMBOL: "="
  pIC50: 5.92
- COMPOUND: "CCCCCCCCn1c(-c2ccc(Cl)cc2)cnc1NC1CCCC1 [Compound 8f]"
  QUALIFIER SYMBOL: "="
  pIC50: 4.54
- COMPOUND: "CCCCCCCCn1c(-c2ccc(Cl)c(Cl)c2)cnc1NC1CCCC1 [Compound 8h]"
  QUALIFIER SYMBOL: "<"
  pIC50: 3.40
- COMPOUND: "CCCCCCCCn1c(-c2ccc(Cl)cc2)cnc1NCC(C)C [Compound 8b]"
  QUALIFIER SYMBOL: "="
  pIC50: 4.53
- COMPOUND: "CCCCCCCCn1c(-c2ccc(Cl)c(Cl)c2)cnc1NCC(C)C [Compound 8d]"
  QUALIFIER SYMBOL: "<"
  pIC50: 3.40
- COMPOUND: "CCCCCCCCn1c(-c2ccc(Br)cc2)cnc1NC1CCCC1 [Compound 8g]"
  QUALIFIER SYMBOL: "="
  pIC50: 4.37
- COMPOUND: "O=C(N/N=C/c1ccc([N+](=O)[O-])o1)c1ccc(O)cc1 [Nifuroxazide, reference compound]"
  QUALIFIER SYMBOL: "="
  pIC50: 4.91
- COMPOUND: "CCCCCCCCn1c(-c2ccc(Br)cc2)cnc1NCC(C)C [Compound 8c]"
  QUALIFIER SYMBOL: "<"
  pIC50: 3.40

---

Tested on: S. epidermidis
EXPERIMENT NOTES: Monospecies bacterial biofilm inhibition, static peg assay
Type: cell-based, Staphylococcus epidermidis
STUDY CONDITIONS: Staphylococcus epidermidis, 37°C, read-out: BIC50

- COMPOUND: "O=c1cc(-c2ccccc2)oc2cc(O)c(O)c(O)c12 [Baicalein, reference compound]"
  SYSTEM NAME: "S. epidermidis"
  IC50: "> 400 µM"
- COMPOUND: "Brc1ccc(-c2cnc(NCCn3cc(C4CC4)nn3)[nH]2)cc1 [Compound 6]"
  SYSTEM NAME: "S. epidermidis"
  IC50: "> 400 µM"
- COMPOUND: "CCCCCn1c(-c2ccccc2)cnc1N [Compound 1]"
  SYSTEM NAME: "S. epidermidis"
  IC50: "~202 µM"
- COMPOUND: "O=C(N/N=C/c1ccc([N+](=O)[O-])o1)c1ccc(O)cc1 [Nifuroxazide, reference compound]"
  SYSTEM NAME: "S. epidermidis"
  IC50: "46.9 µM"
- COMPOUND: "Clc1ccc(-c2cnc(NC3CCCC3)[nH]2)cc1 [Compound 5]"
  SYSTEM NAME: "S. epidermidis"
  IC50: "> 400 µM"
- COMPOUND: "CCCCNc1ncc(-c2ccc(Br)cc2)[nH]1 [Compound 4]"
  SYSTEM NAME: "S. epidermidis"
  IC50: "> 400 µM"
- COMPOUND: "CC(C)CNc1ncc(-c2ccc(Cl)cc2)[nH]1 [Compound 3]"
  SYSTEM NAME: "S. epidermidis"
  IC50: "> 400 µM"

---

Test system: P. aeruginosa PA14
EXPERIMENT NOTES: Monospecies bacterial biofilm inhibition, static peg assay
Format: cell-based, Pseudomonas aeruginosa
STUDY CONDITIONS: Pseudomonas aeruginosa, PA14, P. aeruginosa PA14, 25°C; read-out: BIC50
Each record here notes measured IC50.
PROPERTY NAME: IC50

- MOLECULE: "Brc1ccc(-c2cnc(NCCn3cc(C4CC4)nn3)[nH]2)cc1 [Compound 6]"
  PROPERTY NAME: "IC50"
  RECORDED VALUE: "71.6 µM"
- MOLECULE: "CCCCCn1c(-c2ccccc2)cnc1N [Compound 1]"
  PROPERTY NAME: "IC50"
  RECORDED VALUE: "2.1 µM"
- MOLECULE: "CCCCCCCCn1c(-c2ccc(Cl)cc2)cnc1NCC(C)C [Compound 8b]"
  PROPERTY NAME: "IC50"
  RECORDED VALUE: "> 400 µM"
- MOLECULE: "CCCCCCCCn1c(-c2ccc(Cl)c(Cl)c2)cnc1NCC(C)C [Compound 8d]"
  PROPERTY NAME: "IC50"
  RECORDED VALUE: "> 400 µM"
- MOLECULE: "O=C(N/N=C/c1ccc([N+](=O)[O-])o1)c1ccc(O)cc1 [Nifuroxazide, reference compound]"
  PROPERTY NAME: "IC50"
  RECORDED VALUE: "> 400 µM"
- MOLECULE: "CCCCCCCCn1c(-c2ccc(Br)cc2)cnc1NCC(C)C [Compound 8c]"
  PROPERTY NAME: "IC50"
  RECORDED VALUE: "> 400 µM"

---

System: C. albicans SC5314 + S. epidermidis
EXPERIMENT NOTES: Mixed C. albicans-S. epidermidis biofilm, selective plating CFU
Type: cell-based, Candida albicans + Staphylococcus epidermidis
STUDY CONDITIONS: 37°C, 100 μM compound, read-out: % CFU survival, C. albicans
Where activity at 100 µM equals or exceeds 8%, the correct label is YES; where it does not, the label is NO.

- CHEM SMILES: "CCCCCCCCn1c(-c2ccc(Cl)cc2)cnc1NCC(C)C"
  CLASS: "YES"
- CHEM SMILES: "CCCCCCCCn1c(-c2ccc(Cl)cc2)cnc1N"
  CLASS: "NO"
- CHEM SMILES: "CCCCCCCCn1c(-c2ccc(Br)cc2)cnc1NC1CCCC1"
  CLASS: "NO"
- CHEM SMILES: "CCCCCCCCn1c(-c2ccccc2)cnc1NCC(C)C"
  CLASS: "NO"
- CHEM SMILES: "CCCCCCCCn1c(-c2ccc(Br)cc2)cnc1NCC(C)C"
  CLASS: "YES"
- CHEM SMILES: "CCCCCCCCn1c(-c2ccc(Cl)cc2)cnc1NC1CCCC1"
  CLASS: "NO"

---

pIC50 reference
Test system: S. aureus ATCC 6538 + S. epidermidis
EXPERIMENT NOTES: Mixed-species S. aureus-S. epidermidis biofilm assay (peg, crystal violet)
Format: cell-based, Staphylococcus aureus + Staphylococcus epidermidis
STUDY CONDITIONS: 48 h; mixed S. aureus ATCC 6538 + S. epidermidis biofilm, 37°C; read-out: BIC50
pIC50: −log10 of the molar value.

- CHEM SMILES: "Brc1ccc(-c2cnc(NCCn3cc(C4CC4)nn3)[nH]2)cc1"
  pIC50: 4.47
- CHEM SMILES: "CCCCCn1c(-c2ccccc2)cnc1N"
  pIC50: 4.35
- CHEM SMILES: "CCCCNc1ncc(-c2ccc(Br)cc2)[nH]1"
  pIC50: 5.17

---

Tested on: bone marrow-derived mesenchymal stem cells (MSC)
EXPERIMENT NOTES: Metabolic activity, MTT staining
Assay type: cell-based
STUDY CONDITIONS: 12.5 μM, 6 days of treatment
PROPERTY NAME: metabolic activity of MSC (MTT) compared to solvent control

- CHEM SMILES: "CCCCCCCCn1c(-c2ccc(Br)cc2)cnc1NC1CCCC1"
  SYSTEM NAME: "bone marrow-derived mesenchymal stem cells (MSC)"
  RECORDED VALUE: "increased"
- CHEM SMILES: "CCCCCCCCn1c(-c2ccc(Cl)c(Cl)c2)cnc1NCC(C)C"
  SYSTEM NAME: "bone marrow-derived mesenchymal stem cells (MSC)"
  RECORDED VALUE: "increased"
- CHEM SMILES: "CCCCCCCCn1c(-c2ccc(Br)cc2)cnc1NCC(C)C"
  SYSTEM NAME: "bone marrow-derived mesenchymal stem cells (MSC)"
  RECORDED VALUE: "increased"
- CHEM SMILES: "CCCCCCCCn1c(-c2ccc(Cl)c(Cl)c2)cnc1NC1CCCC1"
  SYSTEM NAME: "bone marrow-derived mesenchymal stem cells (MSC)"
  RECORDED VALUE: "increased"
